# SYSTEM_UNDER_TEST: PTP1B (Homo sapiens, UniProt P18031)
# Sequence (P18031 whole entry): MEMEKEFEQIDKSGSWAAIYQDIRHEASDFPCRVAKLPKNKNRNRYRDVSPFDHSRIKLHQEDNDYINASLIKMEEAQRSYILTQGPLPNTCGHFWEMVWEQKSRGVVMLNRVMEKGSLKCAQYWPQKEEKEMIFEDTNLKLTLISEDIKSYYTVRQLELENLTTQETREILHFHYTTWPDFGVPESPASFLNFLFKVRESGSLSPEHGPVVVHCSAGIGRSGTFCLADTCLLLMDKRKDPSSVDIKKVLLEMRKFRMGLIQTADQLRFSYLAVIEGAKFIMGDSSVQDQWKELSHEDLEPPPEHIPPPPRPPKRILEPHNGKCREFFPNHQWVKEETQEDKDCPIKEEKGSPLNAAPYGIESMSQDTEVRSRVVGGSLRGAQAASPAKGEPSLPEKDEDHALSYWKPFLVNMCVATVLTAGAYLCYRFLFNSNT
# RUN_DESCRIPTION: Protein tyrosine phosphatase 1B inhibition assay
# Format: biochemical
# SETTINGS: read-out: PTP1B inhibition (% at 50 μM)
VALUE_TYPE: inhibition at 50 µM (%)
Numbers only, in %.

Solved cases below.
[[record]]
compound = "CC(C)=C1CC([C@H]2CC[C@]3(C)[C@@H]2CC[C@@H]2C4=C(CC[C@]23C)C(C)(C)[C@@H]2CC[C@H]4O2)=CC1=O [Compound 5, gypensapogenin B]"
system_under_test = "PTP1B (Homo sapiens, UniProt P18031)"
measured_value = 67.1

[[record]]
compound = "CC(C)=C[C@H]1C=C([C@H]2CC[C@]3(C)[C@@H]2CC[C@@H]2[C@@]4(C)CC[C@H](O)C(C)(C)[C@@H]4CC[C@]23C)C(=O)O1 [Compound 7, gypensapogenin D]"
system_under_test = "PTP1B (Homo sapiens, UniProt P18031)"
measured_value = 83.5

[[record]]
compound = "CC(C)=C1CC=C([C@H]2CC[C@]3(C)[C@@H]2CC[C@@H]2C4=C(CC[C@]23C)C(C)(C)[C@@H]2CC[C@H]4O2)C1=O [Compound 4, gypensapogenin A]"
system_under_test = "PTP1B (Homo sapiens, UniProt P18031)"
measured_value = 65.9


Provide inhibition at 50 µM value for the following compound: CC(C)=C1CC=C([C@H]2CC[C@]3(C)[C@@H]2CC[C@@H]2[C@@]4(C)CC[C@H](O)C(C)(C)[C@@H]4CC[C@]23C)C1=O [Compound 6, gypensapogenin C]
78.9

* * *

Kindly state α-glucosidase inhibition (% at 50 μM) for each of the entries shown.
# Tested on: α-glucosidase
# RUN_DESCRIPTION: α-Glucosidase inhibition assay
# Type: biochemical, yeast
# SETTINGS: 50 μM; mean ± SD, n=3
One number for each entry, in %.

[[record]]
compound = "CC(C)=C1CC=C([C@H]2CC[C@]3(C)[C@@H]2CC[C@@H]2[C@@]4(C)CC[C@H](O)C(C)(C)[C@@H]4CC[C@]23C)C1=O [Compound 6, gypensapogenin C]"
units = "%"
measured_value = 24.64

[[record]]
compound = "C[C@H]1O[C@H](O[C@H]2[C@H](O)[C@@H](O)[C@@H](O[C@H]3[C@H](O)[C@@H](O)C(O)O[C@@H]3CO)O[C@@H]2CO)[C@H](O)[C@@H](O)[C@@H]1N[C@H]1C=C(CO)[C@@H](O)[C@H](O)[C@H]1O (some centres unmarked) [Acarbose, reference compound]"
units = "%"
measured_value = 96.51

[[record]]
compound = "CC(C)=C[C@H]1C=C([C@H]2CC[C@]3(C)[C@@H]2CC[C@@H]2[C@@]4(C)CC[C@H](O)C(C)(C)[C@@H]4CC[C@]23C)C(=O)O1 [Compound 7, gypensapogenin D]"
units = "%"
measured_value = 61.94

[[record]]
compound = "CC(C)=C1CC=C([C@H]2CC[C@]3(C)[C@@H]2CC[C@@H]2C4=C(CC[C@]23C)C(C)(C)[C@@H]2CC[C@H]4O2)C1=O [Compound 4, gypensapogenin A]"
units = "%"
measured_value = 25.80


Write down the reported α-glucosidase inhibition (% at 50 μM) (system: α-glucosidase) of CC(C)=C1CC([C@H]2CC[C@]3(C)[C@@H]2CC[C@@H]2C4=C(CC[C@]23C)C(C)(C)[C@@H]2CC[C@H]4O2)=CC1=O [Compound 5, gypensapogenin B]
25.55
